Provenance of the data: patent US11566007B2

- ASSAYED_SYSTEM: NRAS G12C (Homo sapiens (Human), UniProt P01111+P62937, G12C)
- Sequence (P01111 whole entry G12C): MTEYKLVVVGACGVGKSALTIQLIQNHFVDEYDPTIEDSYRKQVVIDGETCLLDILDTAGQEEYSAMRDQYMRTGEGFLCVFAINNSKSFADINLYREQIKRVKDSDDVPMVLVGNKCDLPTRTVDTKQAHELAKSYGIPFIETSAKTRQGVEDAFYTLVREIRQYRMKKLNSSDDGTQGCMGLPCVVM
- Sequence (P62937 whole entry): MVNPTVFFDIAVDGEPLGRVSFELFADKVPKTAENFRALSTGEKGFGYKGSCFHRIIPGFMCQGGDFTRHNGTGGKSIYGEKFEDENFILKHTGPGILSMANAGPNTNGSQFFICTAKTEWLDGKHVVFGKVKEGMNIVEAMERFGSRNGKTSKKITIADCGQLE
- TEST_PROTOCOL: Ras-Raf (BRAF RBD) disruption / FRET / MOA assay, NRAS G12C
- Format: biochemical
- MEASUREMENT_PARAMETERS: read-out: IC50* NRAS G12C FRET data
MEASURED_QUANTITY: IC50

1) C=CC(=O)N1CC[C@H](C(=O)N(C)[C@H](C(=O)N[C@H]2Cc3cc(O)cc(c3)-c3ccc4c(c3)c(c(-c3ccc(CN(C)C)nc3COC)n4CC)CC(C)(C)COC(=O)[C@@H]3CCCN(N3)C2=O)C(C)C)C1; 10 to 100 nM
2) CCn1c(-c2cccnc2[C@H](C)OC)c2c3cc(ccc31)-c1cccc(c1)C[C@H](NC(=O)[C@H](C(C)C)N(C)C(=O)[C@H]1CCN(C(=O)C#CC3(N(C)C)CCOC3)C1)C(=O)N1CCC[C@H](N1)C(=O)OCC(C)(C)C2 (stereo partly shown); 10 to 100 nM
3) C=CC(=O)N1CCO[C@@H]2CN(C(=O)N(C)[C@H](C(=O)N[C@H]3Cc4nc(cs4)-c4ccc5c(c4)c(c(-c4cccnc4[C@H](C)OC)n5CC)CC(C)(C)COC(=O)[C@@H]4CCCN(N4)C3=O)C(C)C)C[C@@H]21 (atropisomer, axis not shown); 100 to 1000 nM

Prompt: Short answer please: IC50, NRAS G12C (Homo sapiens (Human), UniProt P01111+P62937, G12C), entry C=CC(=O)N1CCCN(C(=O)N(C)[C@H](C(=O)N[C@H]2Cc3nc(cs3)-c3ccc4c(c3)c(c(-c3cccnc3[C@H](C)OC)n4CC)CC(C)(C)COC(=O)[C@@H]3CCCN(N3)C2=O)C(C)C)CC1 (atropisomer, axis not shown)
Response: 10 to 100 nM
